// data source = the supplement of paper PMC6763611

Record form. Attribute: growth inhibition. Fill in for each entry.
# Tested on: Plasmodium falciparum NF54
# assay-info: growth inhibition relative to untreated control; higher = more inhibition
# test-context: 5 µM; minimal medium (MM); 72 h
Give just the numeric value; % need not be written.

For the compound shown here, CO/C=C(/C(=O)OC)c1ccccc1Oc1cc(Oc2ccccc2C#N)ncn1 , give the reported growth inhibition.
92.2

So what's the measured growth inhibition for this one? Cc1nn(C)c(C)c1NS(=O)(=O)c1c(Cl)cc(-c2ccnc(N3CCNCC3)c2)cc1Cl
89.6

Which measured growth inhibition value corresponds to O=C1O[C@@H](CO)CN1c1cc(F)c(C2=CCN(Cc3ccccc3)CC2)c(F)c1 ?
49.9

Look at this compound and give its reported growth inhibition. CC1COC(Cn2cncn2)(c2ccc(Oc3ccc(Cl)cc3)cc2Cl)O1 (centres undefined)
33.6

Need growth inhibition of O=C1O[C@@H](COc2ccon2)CN1c1cc(F)c(C2=CCN(Cc3ccccc3)CC2)c(F)c1 , thanks.
28.6

Form field: reported growth inhibition of CC1(C)OB(O)c2ccc(C3=NOC(c4cc(Cl)c(F)c(Cl)c4)(C(F)(F)F)C3)cc21 (centres undefined)
11.9

Recorded growth inhibition of Cc1cc(C2=NOC(c3cc(Cl)c(F)c(Cl)c3)(C(F)(F)F)C2)ccc1C(=O)NCc1ccc2c(c1)C(C)(C)OB2O (centres undefined) , please.
10.9

GET /values?readout=growth inhibition&item= CO/N=C(\C(=O)OC)c1ccccc1CO/N=C(\C)c1cccc(C(F)(F)F)c1
91.8

---

# Tested on: Plasmodium falciparum NF54
# assay-info: growth inhibition relative to untreated control; higher = more inhibition
# test-context: 1 µM; MM + chorismate end-products (CM screening medium); 72 h
Outcome: T for growth inhibition of at least 30%; F for anything lower.

Does the compound O=C1O[C@@H](COc2ccon2)CN1c1cc(F)c(C2=CCN(Cc3ccccc3)CC2)c(F)c1 have recorded growth inhibition that is 30% or more?
F

Determine whether measured growth inhibition meets or exceeds 30% for CC1(C)OB(O)c2ccc(C3=NOC(c4cc(Cl)c(F)c(Cl)c4)(C(F)(F)F)C3)cc21 (configuration not stated)
T

Quick check: does Nc1c2c(nc3sc4c(c13)CCCC4)CCCC2 have growth inhibition greater than or equal to 30%?
F

Say whether O=C1O[C@@H](CO)CN1c1cc(F)c(C2=CCN(Cc3ccccc3)CC2)c(F)c1 shows growth inhibition of 30% or more.
F

I'd appreciate it if you could say whether Cc1cc(C2=NOC(c3cc(Cl)c(F)c(Cl)c3)(C(F)(F)F)C2)ccc1C(=O)NCc1ccc2c(c1)C(C)(C)OB2O (configuration not stated) has growth inhibition at least equal to 30%.
F

State whether the measured growth inhibition reaches 30%, counting equality as reaching it, for CO/N=C(\C(=O)OC)c1ccccc1CO/N=C(\C)c1cccc(C(F)(F)F)c1
T

Reported growth inhibition at or above 30%? CO[C@@H]1CN(c2ccc(C#CC3(O)CN4CCC3CC4)c(Cc3ccccc3)n2)C[C@H]1O (some centres not stated)
T

---

# Test system: Plasmodium falciparum NF54
# assay-info: growth inhibition relative to untreated control; higher = more inhibition
# test-context: 5 µM; MM + chorismate end-products (CM screening medium); 72 h
Can you tell me growth inhibition for the items I'm about to list?
Respond numerically; units are % and should not be typed.

Please provide the recorded growth inhibition for O=C1O[C@@H](COc2ccon2)CN1c1cc(F)c(C2=CCN(Cc3ccccc3)CC2)c(F)c1 , tested on Plasmodium falciparum NF54.
54.4

Under Plasmodium falciparum NF54: growth inhibition value of Cc1cc(C2=NOC(c3cc(Cl)c(F)c(Cl)c3)(C(F)(F)F)C2)ccc1C(=O)NCc1ccc2c(c1)C(C)(C)OB2O (stereo not drawn) ?
40.8
